Source: ChEMBL document CHEMBL5518244

Assay text: Metabolic stability in mouse liver microsomes assessed as half life at 1 uM measured upto 60 mins by LC-MS/MS analysis
Format: ADME, Microsome
Value kind: half-life at 1 µM (min)
The reply should be a number in min, with the unit left off.

In: Give reported half-life at 1 µM value for COc1cc(Nc2nccc(N3CCCn4nc(C#C[C@@](C)(O)c5nccs5)cc43)n2)cc(OC)c1
Out: 19.5

* * *

Assay text: Tmax in C57BL/6J mouse at 10 mg/kg, po measured upto 24 hrs by LC-MS/MS analysis
Format: ADME, organism-based
Condition parameters: in vivo
Value kind: Tmax
Give the number first and the unit second.

In: Give reported Tmax value for COc1cc(Nc2nccc(N3CCCn4nc(C#C[C@@](C)(O)c5nccs5)cc43)n2)cc(OC)c1
Out: 30 min
